testedTarget: T1, recombinant human IL-6 (human, UniProt P05231 30-212)
T1 construct: Bought from R&D Systems (206-IL-010); Biotinylated or coupled to beads in some assays; also called hIL-6; rhIL-6
T1 sequence (P05231 30-212 limits assumed): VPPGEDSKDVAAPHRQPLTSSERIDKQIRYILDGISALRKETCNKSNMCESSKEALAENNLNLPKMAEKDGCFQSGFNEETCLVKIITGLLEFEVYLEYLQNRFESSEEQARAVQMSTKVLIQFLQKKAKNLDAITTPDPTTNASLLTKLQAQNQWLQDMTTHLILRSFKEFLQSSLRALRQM
testMethodNotes: KinExA 3000
Listed next: entries and their corresponding Improvement Ratio of KD (as compared to chimeric ab).
Give just the number in fold; leave the unit off.

Check out these entries, answers already filled in.
binder: AME-20b (antibody, V domains shown, Tested as IgG; also called 140) VH: EVQLVESGGGLVQPGGSLRLSCAASGFQFSSFAMSWVRQAPGKGLEWVAKISPGGSYTYYSDTVTGRFTISRDNAKNSLYLQMNSLRAEDTAVYYCARQLWGYYALDIWGQGTTVTVSS VL: EIVLTQSPATLSLSPGERATLSCSASISVSYMYWYQQKPGQAPRLLIYDMSNLASGIPARFSGSGSGTDFTLTISSLEPEDFAVYYCMQWSGYPYTFGGGTKVEIK
endpointResult: 3.8

binder: AME-19a (antibody, V domains shown, Tested as IgG; also called 136; human engineered anti-IL-6 (clone AME-19a) antibody) VH: EVQLVESGGGLVQPGGSLRLSCAASGFTFSPFAMSWVRQAPGKGLEWVAKISPGGSWTYYSDTVTGRFTISRDNAKNSLYLQMNSLRAEDTAVYYCARQLWGYYALDIWGQGTTVTVSS VL: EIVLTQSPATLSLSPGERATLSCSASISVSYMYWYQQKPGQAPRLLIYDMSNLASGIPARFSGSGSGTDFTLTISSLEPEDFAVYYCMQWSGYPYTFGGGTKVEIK
endpointResult: 81.1

Please examine the following record next.
Q: Need Improvement Ratio of KD (as compared to chimeric ab), item AME-18a (antibody, V domains shown, Tested as IgG; also called 130) VH: EVQLVESGGGLVQPGGSLRLSCAASGFQFSPFAMSWVRQAPGKGLEWVAKISPGGSWTYYSDTVTGRFTISRDNAKNSLYLQMNSLRAEDTAVYYCARQLWGYYALDIWGQGTTVTVSS VL: EIVLTQSPATLSLSPGERATLSCSASSSVSYMYWYQQKPGQAPRLLIYDFSNLASGIPARFSGSGSGTDFTLTISSLEPEDFAVYYCMQWSGYPYTFGGGTKVEIK
Result: 25
